Reported IC50 on UniProt:P07900 for assorted molecules, compiled from publications.

In the examples that follow, each entry is paired with its recorded IC50.
>>> recordedmeasurement("COc1cccc(C(=O)NC2CC3CCC(C2)N3c2ccc(C(=O)N[C@H]3CCCC[C@@H]3O)cn2)c1C (some centres unmarked)")
"2000 to 10000 nM"
>>> recordedmeasurement("CCNC(=O)c1noc(-c2cc(C(C)C)c(O)cc2O)c1-c1ccc(CN(C)CCCC(=O)NO)cc1")
"≤ 100 nM"
>>> recordedmeasurement("O=C(NCc1ccccc1)c1ccc(N2[C@@H]3CC[C@H]2C[C@@H](NC(=O)c2ccc(C(O)CO)cc2)C3)nc1 (some centres unmarked)")
"1000 to 2000 nM"
>>> recordedmeasurement("CC[C@H](C)NC(=O)c1ccc(N2C3CCC2CC(NC(=O)c2cccc(OC)c2C)C3)nc1 (some centres unmarked)")
"2000 to 10000 nM"
>>> recordedmeasurement("CCNC(=O)c1noc(-c2cc(Cl)c(O)cc2O)c1NC(=O)C(C)(C)C")
"< 100 nM"
>>> recordedmeasurement("CC(=O)c1ccc(N2[C@@H]3CC[C@H]2C[C@@H](NC(=O)c2ccc(C(N)=O)c(NCC4CCNC4)c2)C3)nc1 (some centres unmarked)")
"< 500 nM"
>>> recordedmeasurement("CCNC(=O)c1noc(-c2cc(Cl)c(O)cc2O)c1NCc1sccc1C")
"100 to 1000 nM"

# ---- query molecule ----
-- ask Recall the recorded IC50 for "CCNC(=O)c1noc(-c2cc(C(C)C)c(O)cc2O)c1-c1ccc(CNCCCCCCC(=O)NO)cc1" with UniProt:P07900 and state it.
-- reply ≤ 100 nM

====

Reported pIC50 on Heat shock protein HSP 90-alpha (Homo sapiens, UniProt P07900) for assorted compounds, compiled from publications.
pIC50: −log10 of the molar value.

In the examples that follow, each entry is paired with its recorded pIC50.
>>> recordedmeasurement("COCCCn1nnnc1-c1cc(-c2cccc(C(=O)O)c2)c(O)cc1O")
"< 4.30"
>>> recordedmeasurement("COc1ccc(CNC(=O)c2ccc(N3[C@@H]4CC[C@H]3C[C@@H](NC(=O)c3cccc(OC)c3C)C4)nc2)cc1F")
"> 6.30"

-- ask Recall the recorded pIC50 for "CCN1CCC(Nc2cc(C(=O)N[C@H]3C[C@H]4CC[C@@H](C3)N4c3ccc(C(C)=O)cn3)ccc2C(N)=O)CC1" with Heat shock protein HSP 90-alpha (Homo sapiens, UniProt P07900) and state it.
-- reply 6.00 to 6.30

-- ask Recall the recorded pIC50 for "CCN1C(=O)[C@H](C)N(Cc2ncc(C)c(OC)c2C)c2nc(N)ncc21" with Heat shock protein HSP 90-alpha (Homo sapiens, UniProt P07900) and state it.
-- reply 4.78

====

Reported pIC50 on Heat shock protein HSP 90-alpha (Homo sapiens) for assorted compounds, compiled from publications.
pIC50: −log10 of the molar value.

>>> recordedmeasurement("NC(=O)c1ccc(C(=O)N[C@H]2C[C@H]3CC[C@@H](C2)N3c2ccc(C(=O)CCN3CCCC3)cn2)cc1NCC1CC1")
"> 6.30"
>>> recordedmeasurement("COc1ccc(C(C)C)cc1-c1cc(-c2nnnn2C2CCN(C(=O)CC(C)C)CC2)c(O)cc1O")
"4.30 to 5.00"
>>> recordedmeasurement("COc1c(C)cnc(CN2c3nc(N)ncc3NC(=O)[C@H]2CC(N)=O)c1C")
5.76

-- ask Recall the recorded pIC50 for Cc1cc(C(=O)NC2CC3CCC(C2)N3c2ccc(C(=O)N[C@H]3CCN(C)C3)cn2)c(C)cc1C(N)=O (some centres unmarked) with Heat shock protein HSP 90-alpha (Homo sapiens) and state it.
-- reply > 6.30

-- ask Recall the recorded pIC50 for CC[C@@H](C)Nc1c(C(N)=O)cc(C)c(C(=O)NC2CC3CCC(C2)N3c2ccc(C(=O)C3CC3)cn2)c1Cl (some centres unmarked) with Heat shock protein HSP 90-alpha (Homo sapiens) and state it.
-- reply > 6.30

-- ask Recall the recorded pIC50 for "CC(C)CCC(=O)c1ccc(N2[C@@H]3CC[C@H]2C[C@@H](NC(=O)c2ccc(C(N)=O)c(NCC4CC4)c2)C3)nc1" with Heat shock protein HSP 90-alpha (Homo sapiens) and state it.
-- reply > 6.30

-- ask Recall the recorded pIC50 for "CCNC(=O)c1noc(-c2cc(Cl)c(O)cc2O)c1-c1ccc(OCCCCCC(=O)NO)cc1" with Heat shock protein HSP 90-alpha (Homo sapiens) and state it.
-- reply ≥ 7.00

-- ask Recall the recorded pIC50 for "COc1cccc(C(=O)N[C@H]2C[C@H]3CC[C@@H](C2)N3c2ccc(C(=O)NCc3c(F)cccc3F)cn2)c1C" with Heat shock protein HSP 90-alpha (Homo sapiens) and state it.
-- reply > 6.30

====

Reported IC50 on Heat shock protein HSP 90-alpha (Homo sapiens, UniProt P07900) for assorted compounds, compiled from publications.

In the examples that follow, each entry is paired with its recorded IC50.
>>> recordedmeasurement("CCCCn1nnnc1-c1cc(-c2cccc(C(=O)NCCc3cccc(OC)c3)c2)c(O)cc1O")
"> 50000 nM"
>>> recordedmeasurement("Cc1cc(C(=O)NC2CC3CCC(C2)N3c2ccc(C(=O)N[C@H]3CCCN(C(C)C)C3)cn2)c(C)cc1C(N)=O (some centres unmarked)")
"500 to 999 nM"
>>> recordedmeasurement("COc1cccc(C(=O)N[C@H]2C[C@H]3CC[C@@H](C2)N3c2ccc(C(=O)NCc3ccc(N4CCN(C)CC4)c(F)c3)cn2)c1C")
"< 500 nM"
>>> recordedmeasurement("COc1cccc(C(=O)N[C@H]2C[C@H]3CC[C@@H](C2)N3c2ccc(C(=O)NCCOC(C)C)cn2)c1C")
"2000 to 10000 nM"
>>> recordedmeasurement("CCC(CC)Nc1cc(C(=O)NC2CC3CCC(C2)N3c2ccc(C(=O)N[C@@H]3CCCN(C(C)C)C3)cn2)c(C)cc1C(N)=O (some centres unmarked)")
"< 500 nM"

-- ask Name the recorded IC50 for "COc1ccc(C(C)C)cc1-c1cc(-c2nnnn2C2CCNCC2)c(O)cc1O" .
-- reply 1000 to 10000 nM

-- ask Name the recorded IC50 for "CCSc1cc2c(cc1Sc1nc(C(N)=O)c(N)n1CCCN(CC)CC)OCO2" .
-- reply 1450 nM

-- ask Name the recorded IC50 for "NC(=O)c1ccc(C(=O)N[C@H]2C[C@H]3CC[C@@H](C2)N3c2ccc(C(=O)NCc3cccnc3)cn2)cc1" .
-- reply < 500 nM

====

Reported pIC50 on Heat shock protein HSP 90-alpha (Homo sapiens) for assorted molecules, compiled from publications.
pIC50: −log10 of the molar value.

In the examples that follow, each entry is paired with its recorded pIC50.
>>> recordedmeasurement("CCNC(=O)c1noc(-c2cc(C(C)C)c(O)cc2O)c1NC(=O)c1ccc2cc[nH]c2c1")
"> 7.00"
>>> recordedmeasurement("Cc1cc(C(=O)N[C@H]2C[C@H]3CC[C@@H](C2)N3c2ccc(C(=O)NC3CN(C(C)C)C3)cn2)c(C)cc1C(N)=O")
"> 6.30"
>>> recordedmeasurement("COc1cccc(CNC(=O)c2ccc(N3[C@@H]4CC[C@H]3C[C@@H](NC(=O)c3cccc(OC)c3C)C4)nc2)c1")
"5.00 to 5.70"

-- ask Recall the recorded pIC50 for CSc1cccc(C(=O)NC2CC3CCC(C2)N3c2ccc(C(=O)N[C@@H](C)c3ccc(N4CCN(C)CC4)cc3)cn2)c1C (stereo partly drawn) with Heat shock protein HSP 90-alpha (Homo sapiens) and state it.
-- reply 6.00 to 6.30

-- ask Recall the recorded pIC50 for "Cc1cc(C(N)=O)c(CC(C)C)cc1C(=O)N[C@H]1C[C@H]2CC[C@@H](C1)N2c1ccc(C(=O)C2CC2)cn1" with Heat shock protein HSP 90-alpha (Homo sapiens) and state it.
-- reply > 6.30

-- ask Recall the recorded pIC50 for "CCOc1cccc(-c2cc(-c3nnnn3CCCOC)c(O)cc2O)c1" with Heat shock protein HSP 90-alpha (Homo sapiens) and state it.
-- reply 4.30 to 5.00

-- ask Recall the recorded pIC50 for "COc1cccc(C(=O)N[C@H]2C[C@H]3CC[C@@H](C2)N3c2ccc(C(=O)NCc3cnc(C)cn3)cn2)c1C" with Heat shock protein HSP 90-alpha (Homo sapiens) and state it.
-- reply > 6.30

====

Reported IC50 on Heat shock protein HSP 90-alpha (Homo sapiens) for assorted molecules, compiled from publications.

In the examples that follow, each entry is paired with its recorded IC50.
>>> recordedmeasurement("CCC(COC)Nc1cc(C(=O)N[C@H]2C[C@H]3CC[C@@H](C2)N3c2ccc(C(C)=O)cn2)ccc1C(N)=O (stereo partly drawn)")
"< 500 nM"
>>> recordedmeasurement("COCCCn1nnnc1-c1cc(-c2cccc(C(=O)N3CCN(CC4CCN(C)CC4)CC3)c2)c(O)cc1O")
"> 50000 nM"
>>> recordedmeasurement("COCCCn1nnnc1-c1cc(-c2cccc(C(=O)N(C)CCCN(C)C)c2)c(O)cc1O")
"> 50000 nM"
>>> recordedmeasurement("COc1cccc(C(=O)N[C@H]2C[C@H]3CC[C@@H](C2)N3c2ccc(C(=O)NCc3cccs3)cn2)c1C")
"< 500 nM"
>>> recordedmeasurement("CCCNc1cc(C(=O)N[C@H]2C[C@H]3CC[C@@H](C2)N3c2ccc(C(=O)C3CC3)cn2)c(C)cc1C(N)=O")
"< 500 nM"
>>> recordedmeasurement("CCNC(=O)c1noc(-c2cc(Cl)c(O)cc2O)c1-c1ccc(OCCCCCCC(=O)NO)cc1")
"≤ 100 nM"
>>> recordedmeasurement("COc1cccc(C(=O)NC2CC3CCC(C2)N3c2ccc(C(=O)NCC(O)CO)cn2)c1C (stereo not drawn)")
"1000 to 2000 nM"
>>> recordedmeasurement("CC(C)[C@H](C)Nc1cc(C(=O)NC2CC3CCC(C2)N3c2ccc(C(=O)C3CC3)cn2)ccc1C(N)=O (stereo partly drawn)")
"< 500 nM"
>>> recordedmeasurement("COc1ccc(Nc2cc(C(=O)N[C@H]3C[C@H]4CC[C@@H](C3)N4c3ccc(C(N)=O)cn3)ccc2C(N)=O)cc1OCCN(C)C")
"< 500 nM"
>>> recordedmeasurement("COc1ccc(CNC(=O)c2ccc(N3[C@@H]4CC[C@H]3C[C@@H](NC(=O)c3cccc(OC)c3C)C4)nc2)c(OC)c1")
"500 to 999 nM"

-- ask Recall the recorded IC50 for "CN1CCN(CCC(=O)c2ccc(N3[C@@H]4CC[C@H]3C[C@@H](NC(=O)c3ccc(C(N)=O)c(NCC5CC5)c3)C4)nc2)CC1" with Heat shock protein HSP 90-alpha (Homo sapiens) and state it.
-- reply < 500 nM

-- ask Recall the recorded IC50 for "COc1cccc(C(=O)N[C@H]2C[C@H]3CC[C@@H](C2)N3c2ccc(C(=O)NCc3ccc(N4CCNCC4)cc3)cn2)c1C" with Heat shock protein HSP 90-alpha (Homo sapiens) and state it.
-- reply < 500 nM
